Below, each entry is listed with its recorded z-score.
test: inhibitors of GR-EGFP nuclear translocation, primary screen, dynein cargo transport inhibitor project, imaging, high-content, 3617.4 mouse cells (AID 1381)
assay_context: measured here: cell count per field, at 50 µM, stimulated with dexamethasone, 1 µM
The campaign covered roughly 220,000 compounds. About 1,000 (0.45%) were called active. This excerpt belongs to a sample that is enriched for actives.

test_smiles	z-score
CCN(CC)S(=O)(=O)c1ccc2c3c(cccc13)C(=O)S2	0.583
CSC1=N/C(=C\c2ccc3c(c2)OCO3)C(=O)S1	-0.123
COc1cc2c(cc1O)C(SC)=NC(C)(C)C2	-1.21
COc1cc2c(cc1OC)C(C(C)C)=NC(C)(C)C2	-0.94
CCCCCCc1cc2cc(-c3nnc(-c4cccc(OC)c4)o3)c(=O)oc2cc1O	-0.146
COc1ccccc1NC(=O)c1ccc(C)s1	-0.862
CC(=O)Nc1ccccc1OC(=O)N1CCOCC1	0.445
CCN(CC)c1ccc2oc(=O)c(C)nc2c1	0.102
CC1=C/C(=N\OS(=O)(=O)c2ccccc2)C=CC1=O	-1.11
